Every entry's value here was drawn from PubChem BioAssay.

Experiment: small-molecule microarray binders of probe aEGFR, primary screen, biochemical, biotinylated probe, 635/667 nm fluorescence (AID 1097);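 note: probe is a biotinylated anti-EGFR antibody binding compounds printed on slides; score combines fluorescence near 667 nm and signal to noise of each spot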
Conditions: higher = more signal
Kindly return MET if reported composite z-score is no lower than 0.04; return NOT MET if it is lower.

Previously resolved entries follow.
- CCC[C@@H]1C[C@@]1(CCC)[C@@H](NP(=O)(c1ccccc1)c1ccccc1)c1ccc(Cl)cc1: NOT MET
- CC1CC/C=C\[C@H]2OC34C=CCN(CCN5CCOCC5)C(=O)[C@H]3N(CCO)C(=O)[C@@H]4C2C(=O)O1 (some centres not stated): NOT MET
- COC(=O)[C@@]1(Cc2ccc(OC)cc2)[C@H]2c3cc(C(=O)N(C)C)n(Cc4nc5ccccc5[nH]4)c3C[C@H]2CN1C(=O)c1ccccc1: MET
- C=C1C2CC3C(=C4C(CO[C@@H]4[C@H]4CCCN4S(=O)(=O)c4ccccc4[N+](=O)[O-])C4C(=O)N(C)C(=O)C34)CC2C(=O)N1C (some centres not stated): MET

[in] Has "COC(=O)c1c(CC[C@@H](CO)NC(=O)N[C@H](Cn2cc(-c3ccccc3C)nn2)C(C)C)oc(C(C)=O)c1C(=O)OC" a recorded composite z-score greater than or equal to 0.04?
[out] NOT MET

[in] # bool: composite z-score of C[C@]12C(=O)N(CCCCCCO)[C@@H]3C(=O)N(c4ccc(Cl)cc4)CC=CC31O[C@@H]1/C=C\CCCOC(=O)C12 (some centres not stated) >= 0.04
[out] NOT MET

----------
Could you please report measured composite z-score for the items listed next?
Target: Epidermal growth factor receptor (Homo sapiens)
Assay: EGFR binders on small-molecule microarrays, primary screen, biochemical, small-molecule microarray, 635 nm fluorescence (AID 1104);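 note: score merges 667 nm emission intensity with spot signal to noise over triplicate slides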
Details: EGFR binding, higher = more signal
One number for each entry.

Please review the following examples before continuing.
- COCCOC(=O)N1C(=O)[C@@]2(c3ccccc31)[C@H](c1ccc(OCCO)cc1)N1[C@H](c3ccccc3)[C@H](c3ccccc3)OC(=O)[C@H]1[C@@H]2C(=O)Nc1nc2ccccc2s1: 0.545
- CC1CC/C=C\[C@H]2OC34C=CCN(C(C)C)C(=O)[C@H]3N(CCCCCO)C(=O)[C@@H]4C2C(=O)O1 (some centres undefined): -1.4
- C=C(CCCC)/C(=C/C[C@@H](OC(=O)c1ccncc1)c1cccc(OCCO)c1)c1cnc2ccccc2c1: 1.27

Batch lookup, composite z-score per entry.
1. CC(=O)N1Cc2ccccc2C[C@]2(N=C(c3ccc(OCCCO)cc3)O[C@@H]2c2ccccc2)C1=O
2. COc1ccc([Si](C)(C)[C@H]2[C@H](CC(=O)N3Cc4ccccc4C[C@H]3CO)O[C@@]3(C(=O)N(Cc4cccc(N5CCCCC5=O)c4)c4ccccc43)[C@@H]2C)cc1
3. COc1ccc([Si](C)(C)[C@@H]2[C@@H](CCn3cc([C@H](O)c4ccccc4)nn3)O[C@]3(C(=O)N(Cc4ccc(N5CCOC5=O)cc4)c4ccccc43)[C@H]2C)cc1

[out]
1. 0.17
2. 0.795
3. 0.664

Fill in composite z-score for each of the 2 compounds listed.
1. CCOC(=O)C[C@H]1[C@H](OC(=O)c2ccc(-c3ccccc3)cc2)[C@@H](NC(=O)c2ccc3ccccc3c2)c2cc(OCCCO)ccc2N1C(=O)c1ccc2ccccc2n1
2. CC(C)c1ccc(NN2C(C(O)c3ccco3)C=CC3C(=O)N(c4ccccc4)C(=O)C32)cc1 (centres undefined)

[out]
0.098
0.0401

[in] Determine its reported composite z-score: "CC(C)CNC(=O)[C@@H]1c2ccccc2C(=O)N(Cc2cc(F)cc(C(F)(F)F)c2)[C@H]1c1ccc(CO)cc1"
[out] -0.315
